Property: T/C; scope: individual compounds
system: P388 leukemia ip, CD2F1 mice, survival T/C; test: NCI In Vivo Anticancer Drug Screen. Data for tumor model P388 Leukemia (intraperitoneal) in CD2F1 (CDF1) mice; settings: endpoint: median survival time; dose: 240.0 mg/kg/injection; schedule: Q01DX005 (ip); vehicle: saline with Tween-80; higher = longer survival
Toxic doses and inconclusive results are not listed.

{"compound": "O=C(NCC1CC1)c1ccccc1NC(=O)c1cc2ccccc2oc1=O", "T/C": "108 % of control"}
{"compound": "CC(CN(C)C)C(/C=C/c1ccc(Cl)c(Cl)c1)=N\\Nc1ccccc1 (configuration not stated)", "T/C": "87 % of control"}
{"compound": "Cc1ccc(C(=O)CSC2=NCCN2)cc1Cl", "T/C": "97 % of control"}
{"compound": "Cc1cccc(N2C(c3ccccc3)c3ccc(C)cc3NS2=O)c1 (configuration not stated)", "T/C": "95 % of control"}
{"compound": "CC(C)(C)NC(=O)NCCCCCCNC(=O)NC(C)(C)C", "T/C": "101 % of control"}
{"compound": "OCc1cc2ccc3ccccc3c2[nH]1", "T/C": "91 % of control"}
{"compound": "Cc1ccc(NC(=O)CCCC(=O)C(C#N)c2ccccc2Cl)cc1C (configuration not stated)", "T/C": "101 % of control"}
{"compound": "COc1ccc(-c2cn(-c3ccccc3)c3ncnc(N)c23)cc1", "T/C": "103 % of control"}
{"compound": "CCOC(=O)CC(C)P(c1ccccc1)C(C)CC(=O)OCC (configuration not stated)", "T/C": "105 % of control"}
{"compound": "Cc1cc(Cl)ccc1NC(=O)Oc1ccc(C#N)cc1", "T/C": "90 % of control"}
{"compound": "Cc1c2c(c(C)c3c1C(=O)c1cc4c(cc1C3=O)OCO4)OC(C)(C)O2", "T/C": "100 % of control"}
{"compound": "O=c1[nH]c2cc(Cl)ccc2nc1/C=C(\\O)c1ccc2ccccc2c1", "T/C": "110 % of control"}
